Test system: BVDV NADL virus
protocolNotes: CPE-based antiviral assay, BVDV NADL in MDBK cells (MTS/PMS)
testConditions: sheet CSFCII#; potency relative to TO502-2403 (EC50 0.2 µM)
Could you please report measured fold increase for the items listed next?
Give bare numbers.

Example results:
Cc1cccc(-n2ccc(NC(=O)c3cc(-c4cccnc4)nc4ccccc34)n2)c1 | 10.00
Cc1csc(-c2cc(C(=O)Nc3nc4c(C)cccc4s3)c3ccccc3n2)c1 | 0.11

List fold increase for every entry below, keeping the order given.
1. O=C(Nc1ccn(-c2ccc(F)cc2)n1)c1cc(-c2cccnc2)nc2ccccc12
2. Cc1cccc2sc(NC(=O)c3cc(-c4ccc(Cl)s4)nc4ccccc34)nc12

1: 0.14; 2: 0.0143

====

Could you please report measured pEC50 for the items listed next?
System: BVDV NADL virus
protocolNotes: CPE-based antiviral assay, BVDV NADL in MDBK cells (MTS/PMS)
testConditions: Bovine viral diarrhea virus isolates and strains, MDBK, 72 h
Numbers only, as −log10 of the molar value.

Example results:
O=C(Nc1ccn(-c2ccccc2)n1)c1cc(-c2cccs2)nc2ccc(Br)cc12 | 6.22
Cc1ccccc1-n1ccc(NC(=O)c2cc(-c3ccccc3)nc3ccccc23)n1 | 5.64
Cc1cccc2sc(NC(=O)c3cc(-c4ccccc4Cl)nc4ccccc34)nc12 | 6.40
O=C(Nc1nc(-c2ccccc2)cs1)c1cc(-c2ccccc2)nc2ccccc12 | 6.15
O=C(Nc1ccn(-c2ccccc2)n1)c1cc(-c2cnccn2)nc2ccccc12 | 6.70
O=C(Nc1ccn(-c2ccccc2)n1)c1cc(-c2cccs2)nc2ccccc12 | 5.77

List pEC50 for every entry below, keeping the order given.
1. COc1ccc(-c2cc(C(=O)Nc3ccn(-c4ccccc4)n3)c3ccccc3n2)cc1F
2. COc1ccc(-n2ccc(NC(=O)c3cc(-c4ccc(F)cc4)nc4ccccc34)n2)cc1

1. 6.22
2. 6.00

====

Tested on: BVDV NADL virus
protocolNotes: CPE-based antiviral assay, BVDV NADL in MDBK cells (MTS/PMS)
testConditions: selectivity index, CC50 vs EC50
measureName: S.I.
Answers are plain numbers.

COc1ccc(-n2ccc(NC(=O)c3cc(-c4ccc(F)cc4)nc4ccccc34)n2)cc1 | 100
O=C(Nc1cccnc1)c1cc(-c2ccccc2)nc2ccccc12 | 1
O=C(Nc1nccs1)c1cc(-c2ccccc2)nc2ccccc12 | 3
O=C(Nc1ccn(-c2cccc(F)c2)n1)c1cc(-c2ccccc2)nc2ccccc12 | 167
Cc1cc(NC(=O)c2cc(-c3ccccc3)nc3ccccc23)no1 | 1

List S.I. for every entry below, keeping the order given.
1. O=C(Nc1ccn(-c2ccccc2)n1)c1cc(-c2cccs2)nc2c(F)cccc12
2. Cc1ccc2nc(NC(=O)c3ncc[nH]3)sc2c1 [CSFC-30, Cc1ccc2nc(NC(=O)c3ncc[NH]3)sc2c1]
3. COc1ccc2nc(NC(=O)c3cc(-c4ccco4)nc4ccc(F)cc34)sc2c1
4. Cc1ccc2nc(NC(=O)c3cc(-c4ccccc4)nc4ccccc34)sc2c1

[2000, 1, 5, 18]

====

Tested on: BVDV NADL virus
protocolNotes: CPE-based antiviral assay, BVDV NADL in MDBK cells (MTS/PMS)
testConditions: sheet CSFCII#; potency relative to TO502-2403 (EC50 0.2 µM)
measureName: fold increase
Give bare numbers.

List fold increase for every entry below, keeping the order given.
1. Cc1ccc(-c2cc(C(=O)Nc3nc4c(C)cccc4s3)c3ccccc3n2)cc1
2. COc1ccc2nc(NC(=O)c3cc(-c4ccco4)nc4ccc(F)cc34)sc2c1
3. Cc1cc(NC(=O)c2cc(-c3ccccc3)nc3ccccc23)on1
4. COc1ccc2nc(NC(=O)c3cc(-c4cccc(F)c4)nc4ccccc34)sc2c1

1. 1.00
2. 0.0106
3. 0.00578
4. 0.22

Origin of the recorded values: paper PMC7144022
